Tested on: H3255
measurementNotes: relative viability (nuclei count vs DMSO), 5 days (fraction); higher = more cells survive
conditionDescription: first compound 0.05 µM
Kindly apply the following: yes if relative viability is less than 0.5, no in every other case.

[[record]]
compound = "Nc1ccn([C@@H]2O[C@H](CO)[C@@H](O)[C@@H]2O)c(=O)n1 [Cytarabine] + CC(=O)c1c(C)c2cnc(Nc3ccc(N4CCNCC4)cn3)nc2n(C2CCCC2)c1=O [Palbociclib] (partner 0.5 µM)"
classassignment = "yes"

[[record]]
compound = "Nc1ccn([C@@H]2O[C@H](CO)[C@@H](O)[C@@H]2O)c(=O)n1 [Cytarabine] + CC1(C)CCC(c2ccc(Cl)cc2)=C(CN2CCN(c3ccc(C(=O)NS(=O)(=O)c4ccc(N[C@H](CCN5CCOCC5)CSc5ccccc5)c(S(=O)(=O)C(F)(F)F)c4)cc3)CC2)C1 [Navitoclax] (partner 0.5 µM)"
classassignment = "yes"

[[record]]
compound = "COc1cc2nccc(Oc3ccc(NC(=O)Nc4cc(C)on4)c(Cl)c3)c2cc1OC [Tivozanib] + COc1cccc2cc(-c3nc([C@H]4CC[C@H](C(=O)O)CC4)n4ncnc(N)c34)[nH]c12 [OSI-027] (partner 0.5 µM)"
classassignment = "no"


Consider now this further compound.
relative viability under 0.5? Item: COc1cc2nccc(Oc3ccc(NC(=O)Nc4cc(C)on4)c(Cl)c3)c2cc1OC [Tivozanib] + Cc1cc(Nc2cc(N3CCN(C)CC3)nc(Sc3ccc(NC(=O)C4CC4)cc3)n2)n[nH]1 [Tozasertib] (partner 0.1 µM)
no
